I'd appreciate it if you could supply EC50 values for the items below.
biological target: hGcgR (Homo sapiens); test: Functional cAMP activation in the presence of 0.1% casein (no HSA); type: cell-based; conditions: in the presence of 0.1% casein (no HSA); geometric mean; read-out: Relative cAMP EC50, hGcgR;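 note: intracellular cAMP rise after 30 min at 37 °C, read by HTRF against a cAMP standard curve, scaled from buffer only (0%) to maximal control ligand response (100%)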
Sequence (P47871 26-477): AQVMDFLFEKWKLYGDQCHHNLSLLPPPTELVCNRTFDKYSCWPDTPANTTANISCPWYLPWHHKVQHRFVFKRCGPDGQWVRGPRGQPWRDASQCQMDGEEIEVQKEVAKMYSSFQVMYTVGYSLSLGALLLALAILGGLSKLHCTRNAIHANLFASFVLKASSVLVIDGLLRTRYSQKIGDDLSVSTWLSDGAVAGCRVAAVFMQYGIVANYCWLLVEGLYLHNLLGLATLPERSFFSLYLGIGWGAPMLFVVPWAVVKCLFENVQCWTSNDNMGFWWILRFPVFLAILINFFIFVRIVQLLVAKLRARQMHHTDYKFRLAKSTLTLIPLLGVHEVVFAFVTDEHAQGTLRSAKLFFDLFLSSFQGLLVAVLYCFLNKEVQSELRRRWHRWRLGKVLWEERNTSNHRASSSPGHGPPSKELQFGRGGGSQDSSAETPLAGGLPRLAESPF
Starred links: 1 amine or outer side, 2 acyl side, 3 side chain; linkers in the order of their positions; H or OH if unused. Non-standard residues stand in square brackets, D forms with d. Groups on a side chain read outwards from the residue. *: point of attachment. C18 diacid = O=C(O)CCCCCCCCCCCCCCCCC(=O)*; γGlu = O=C(O)[C@H](CCC(=O)[*:2])N[*:1]; αMe4Pal = C[C@](N)(Cc1ccncc1)C(=O)O; 4Pal = N[C@@H](Cc1ccncc1)C(=O)O; αMeL = CC(C)C[C@](C)(N)C(=O)O; Orn = NCCC[C@H](N)C(=O)O; AEEA = NCCOCCOCC(=O)O; Aib = CC(C)(N)C(=O)O
Answers are plain numbers, in nM.

Example cases with answers are listed next.
substance | quantity.measured | unit.text | value
H-Y[Aib]QGTFTSD[4Pal]SQ[αMeL]LDKK([AEEA-γGlu-C18 diacid])AQ[αMe4Pal]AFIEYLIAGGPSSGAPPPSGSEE-NH2 [Example 1029] | EC50 | nM | 5.35
H-Y[Aib]QGTFTSD[4Pal]SQ[αMeL]LDKK([γGlu-γGlu-C18 diacid])AQ[αMe4Pal]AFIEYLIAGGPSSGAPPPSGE-NH2 [Example 883] | EC50 | nM | 4.02
H-Y[Aib]QGTFTSD[4Pal]SQ[αMeL]LDKK([γGlu-γGlu-γGlu-C18 diacid])AQ[αMe4Pal]AFIEYLIE[Aib]GPSSGAPPPSGS-NH2 [Example 859] | EC50 | nM | 8.45
H-Y[Aib]QGTFTSD[4Pal]SQ[αMeL]LDKK([AEEA-γGlu-C18 diacid])AQ[αMe4Pal]AFIE[αMe4Pal]LIE[Aib]GPSSGAPPPSGTGE-NH2 [Example 1117] | EC50 | nM | 4.93

Moving on to another substance below.
Task: Return reported EC50; argument: H-Y[Aib]QGTFTSD[4Pal]S[Orn][αMeL]LDKK([γGlu-AEEA-γGlu-C18 diacid])AQ[αMe4Pal]AFIEYLIE[Aib]GPSSGAPPPSGS-NH2 [Example 868]
Output: 7.4

Attribution: patent US20240270821A1
